# procedure_details: Cytotoxicity against human HepAD38 cells assessed as reduction in cell viability
# Type: cell-based
result_type: Activity

// below: answered compounds
cpd_smiles: O=C(N/C(C(=O)N1CCCCC1)=C(\Br)c1ccccc1[N+](=O)[O-])c1ccccc1
result_type: Activity
reported_result: Non-toxic
//
cpd_smiles: O=C(N/C(C(=O)N1CCCCC1)=C(\Cl)c1ccccc1F)c1ccccc1
result_type: Activity
reported_result: Non-toxic
//
cpd_smiles: N#Cc1ccccc1/C(Cl)=C(/NC(=O)c1ccccc1)C(=O)N1CCCCC1
result_type: Activity
reported_result: Non-toxic
//
cpd_smiles: O=C(N/C(C(=O)N1CCCCC1)=C(\Cl)c1ccc(Cl)cc1)c1ccccc1
result_type: Activity
reported_result: Non-toxic
//
cpd_smiles: O=C(N/C(C(=O)N1CCCCC1)=C(\Br)c1ccccc1F)c1ccccc1
result_type: Activity
reported_result: Non-toxic
//
cpd_smiles: COc1ccccc1/C(Cl)=C(/NC(=O)c1ccccc1)C(=O)N1CCCCC1
result_type: Activity
reported_result: Non-toxic

Here's the next entry for you.
// recorded Activity for O=C(N/C(C(=O)N1CCCCC1)=C(\Cl)c1ccccc1Br)c1ccccc1 : Non-toxic

Sourced from ChEMBL document CHEMBL3588769
